Data provenance: the Deep4Chem optical property database

test: solvent given as SMILES; details: in CC#N
propertyMeasured: emission maximum

[[record]]
compound = "CCCn1c2cccc3c2[c+]2c4c1cccc4n(CCC)c1cccc(c12)n3CCC"
propertymeasured = "emission maximum"
reportedresult = "557 nm"

[[record]]
compound = "N#Cc1c2nc3ccccn3c2nc2nc3ccccn3c12"
propertymeasured = "emission maximum"
reportedresult = "525 nm"

[[record]]
compound = "CCN(CC)c1ccc(-c2ccc(-c3nc4ccccc4c(=O)[nH]3)s2)cc1"
propertymeasured = "emission maximum"
reportedresult = "541 nm"

[[record]]
compound = "CCCn1c2cccc3oc4cccc5c4[c+](c32)c2c1cccc2n5CCC"
propertymeasured = "emission maximum"
reportedresult = "590 nm"

[[record]]
compound = "COc1ccc(C2CC(c3ccc(O)cc3)=NN2c2ccc(S(N)(=O)=O)cc2)cc1 (stereo not given)"
propertymeasured = "emission maximum"
reportedresult = "418 nm"

[[record]]
compound = "CC1=[N+]2C(=C(c3c4ccccc4c(-c4ccccc4)c4ccccc34)c3ccc(C)n3[B-]2(F)F)C=C1"
propertymeasured = "emission maximum"
reportedresult = "536 nm"

[[record]]
compound = "COc1cccc2cc(-c3ccc([N+](=O)[O-])cc3)c(=N)oc12"
propertymeasured = "emission maximum"
reportedresult = "366 nm"

[[record]]
compound = "Cc1ccc(-c2cc(-c3ccccc3Cl)c3c(N)nc(N4CCCC4)c(C#N)c3n2)cc1"
propertymeasured = "emission maximum"
reportedresult = "526 nm"

[[record]]
compound = "CCCCCCc1ccc(-n2c3[n+](c4c5ccccc5c5ccccc5c42)[B-](C)(C)c2cc(-n4c5ccccc5c5ccccc54)ccc2-3)cc1"
propertymeasured = "emission maximum"
reportedresult = "409 nm"

[[record]]
compound = "Cc1cccc(Nc2ccccc2C(=O)O)c1C"
propertymeasured = "emission maximum"
reportedresult = "398 nm"

[[record]]
compound = "N#Cc1cc2ccc(O)cc2oc1=O"
propertymeasured = "emission maximum"
reportedresult = "402 nm"

[[record]]
compound = "N#Cc1cc2ccccc2[nH]1"
propertymeasured = "emission maximum"
reportedresult = "330 nm"

[[record]]
compound = "C=CCNc1ccc2ccc3oc4cc(=[N+](C)C)ccc-4nc3c2c1"
propertymeasured = "emission maximum"
reportedresult = "637 nm"

[[record]]
compound = "CCCCC(CC)Cn1c2cc(C#N)c(-c3ccc(N(c4ccccc4)c4ccccc4)cc3)cc2c2cc(-c3ccc(N(c4ccccc4)c4ccccc4)cc3)c(C#N)cc21 (stereo not given)"
propertymeasured = "emission maximum"
reportedresult = "542 nm"

[[record]]
compound = "O=c1oc2ccc3ccccc3c2nc1-c1ccccc1"
propertymeasured = "emission maximum"
reportedresult = "475 nm"

[[record]]
compound = "C(=C\\c1ncc2ccccc2n1)/c1ccc(N(c2ccccc2)c2ccccc2)cc1"
propertymeasured = "emission maximum"
reportedresult = "543 nm"

[[record]]
compound = "O=C1c2ccccc2-c2c(-c3ccc([N+](=O)[O-])cc3)c(-c3ccc([N+](=O)[O-])cc3)c(-c3ccccc3)c3cccc1c23"
propertymeasured = "emission maximum"
reportedresult = "496 nm"

[[record]]
compound = "N#Cc1ccc(-c2ccc3c(c2)c2cc(-c4ccc(C#N)cc4)ccc2c2c3nc(-c3ccc(N(c4ccccc4)c4ccccc4)cc3)n2-c2ccccc2)cc1"
propertymeasured = "emission maximum"
reportedresult = "479.9 nm"

[[record]]
compound = "Cc1cc(C)c2c(c1)nc1c(=O)n(C)c(=O)nc-1n2C"
propertymeasured = "emission maximum"
reportedresult = "552 nm"

[[record]]
compound = "CCCCC1=Cc2c3ccc4cccc5ccc(c6cc(-c7ccc(N(c8ccccc8)c8ccccc8)cc7)n(c26)P1(=O)c1ccccc1)c3c45 (stereo not given)"
propertymeasured = "emission maximum"
reportedresult = "572 nm"

[[record]]
compound = "CC1=CC(/C=C/c2ccc([N+](C)(C)C)cc2)=[N+]2C1=C(c1ccc(C#CCO[C@@H]3O[C@H](CO)[C@@H](O)C(O)[C@H]3O)cc1)c1c(C)cc(/C=C/c3ccc([N+](C)(C)C)cc3)n1[B-]2(F)F (stereo not given in full)"
propertymeasured = "emission maximum"
reportedresult = "629 nm"

[[record]]
compound = "CN(C)c1ccc(/C=C/c2nc(/C=C/c3ccc(N(c4ccccc4)c4ccccc4)cc3)cc(/C=C/c3ccc(N(c4ccccc4)c4ccccc4)cc3)n2)cc1"
propertymeasured = "emission maximum"
reportedresult = "574 nm"

[[record]]
compound = "CCOC(=O)COc1ccc(/C=C/C2=C3c4ccccc4C(c4[nH]c(C)cc4C)=[N+]3[B-](F)(F)n3c(C)cc(C)c32)cc1"
propertymeasured = "emission maximum"
reportedresult = "681 nm"

[[record]]
compound = "Cc1c2oc3c(C)c(N)cc(C(=O)NC4OC(=O)C(C(C)C)N(C)C(=O)CN(C)C(=O)C5CCCN5C(=O)C(C(C)C)NC4=O)c3nc-2c(C(=O)NC2OC(=O)C(C(C)C)N(C)C(=O)CN(C)C(=O)C3CCCN3C(=O)C(C(C)C)NC2=O)c(N)c1=O (stereo not given)"
propertymeasured = "emission maximum"
reportedresult = "634.41 nm"

[[record]]
compound = "CCCCC(CC)CN1C(=O)c2cccc3c(C#Cc4ccc(N(c5ccccc5)c5ccc(C#Cc6ccc7c8c(cccc68)C(=O)N(CC(CC)CCCC)C7=O)cc5)cc4)ccc(c23)C1=O (stereo not given)"
propertymeasured = "emission maximum"
reportedresult = "549 nm"

[[record]]
compound = "CC1(C)C2=C(c3ccc(N(c4ccccc4)c4ccccc4)cc31)P(=O)(c1ccccc1)c1ccccc12 (stereo not given)"
propertymeasured = "emission maximum"
reportedresult = "580 nm"

[[record]]
compound = "CN(C)c1ccc(C2=Nc3sc4cc(C(F)(F)F)ccc4[n+]3[B-](F)(F)O2)cc1"
propertymeasured = "emission maximum"
reportedresult = "500 nm"

[[record]]
compound = "CC1=CC(C)=[N+]2C1=C(c1ccc(-c3c4ccccc4c(-c4ccccc4)c4ccccc34)cc1)c1c(C)cc(C)n1[B-]2(F)F"
propertymeasured = "emission maximum"
reportedresult = "508 nm"

[[record]]
compound = "C/C=C/c1cccc(OC)c1"
propertymeasured = "emission maximum"
reportedresult = "327 nm"

[[record]]
compound = "O=C1Nc2ccccc2/C1=C/C(=O)c1ccc(Cl)cc1"
propertymeasured = "emission maximum"
reportedresult = "398 nm"

[[record]]
compound = "Cc1cc(O)c(C(=O)/C=C/c2ccc(O)c(O)c2)c(=O)o1"
propertymeasured = "emission maximum"
reportedresult = "518 nm"

[[record]]
compound = "c1ccc2c(c1)cc(-c1cc(-c3nccs3)nc(-c3nccs3)c1)c1ccccc12"
propertymeasured = "emission maximum"
reportedresult = "403 nm"

[[record]]
compound = "CN(C)c1ccc2nc(/C=C/c3ccccc3)c(=O)oc2c1"
propertymeasured = "emission maximum"
reportedresult = "567 nm"

[[record]]
compound = "Clc1ccc(-c2nc3ccccc3n2-c2ccccc2)cc1"
propertymeasured = "emission maximum"
reportedresult = "367 nm"

[[record]]
compound = "CN(C)c1ccc(/C=C2\\OC(=O)c3cc(N)ccc32)cc1"
propertymeasured = "emission maximum"
reportedresult = "561.8 nm"

